Hey, just so you know, these numbers are from patent US8017612B2.

Property: IC50; scope: individual molecules
# assay_target: HCV polymerase (NS5B) type 1b (Hepatitis C virus genotype 1b)
# Construct: a region encoding NS5B (J Virol 1991 March, 65(3), 1105-13, 544 amino acids after deletion of 47 amino acids on the C-terminal); 6xHis (C); made in house; host or cells: Escherichia coli
# Sequence (P26663 2420-2963): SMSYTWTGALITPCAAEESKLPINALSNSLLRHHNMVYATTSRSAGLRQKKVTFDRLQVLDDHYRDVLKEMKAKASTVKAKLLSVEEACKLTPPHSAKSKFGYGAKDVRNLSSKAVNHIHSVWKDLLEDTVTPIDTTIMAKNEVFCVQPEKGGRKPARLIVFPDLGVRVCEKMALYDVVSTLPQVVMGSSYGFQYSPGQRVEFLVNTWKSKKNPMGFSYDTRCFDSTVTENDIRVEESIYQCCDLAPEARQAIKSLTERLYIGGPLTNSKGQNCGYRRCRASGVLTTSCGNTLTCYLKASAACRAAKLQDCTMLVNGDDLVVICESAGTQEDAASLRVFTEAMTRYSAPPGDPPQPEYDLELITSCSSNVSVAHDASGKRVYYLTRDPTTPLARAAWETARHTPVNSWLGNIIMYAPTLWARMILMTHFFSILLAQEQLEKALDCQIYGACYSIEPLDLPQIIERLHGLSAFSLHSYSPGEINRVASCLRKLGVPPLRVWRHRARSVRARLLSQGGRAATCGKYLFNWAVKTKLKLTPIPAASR
# procedure_details: Assay of enzyme (HCV polymerase) inhibitory activity, type 1b enzyme
# Assay type: biochemical, HCV BK strain (type 1b)
# condition_context: HCV polymerase inhibitory activity (IC50), 1b, type 1b enzyme 0.5 μg/ml, 25° C., 60 min

Example molecules with recorded IC50:
                                   molecule  result_value
0  CC(=O)N1CCN(S(=O)(=O)c2cc3ccccc3s2)C(C(=O)NCc2ccc(C(F)(F)F)cc2)C1 (stereo not shown) [Example 74]     > 1000 nM
1  CCCc1ccc(CNC(=O)[C@H]2CN(c3nc(C)ns3)CCN2S(=O)(=O)c2ccc(OC(F)(F)F)cc2)cc1 [Example 563]      < 100 nM
2  CCCc1ccc(CNC(=O)[C@H]2CN(c3nc(C)c(CNC)s3)CCN2S(=O)(=O)c2ccc(OC(F)(F)F)cc2)cc1 [Example 506]      < 100 nM

Could you now look at the following molecule, please?
## Input Please report the recorded IC50 for COC(=O)c1ccc(CNC(=O)C2CN(C(C)=O)CCN2S(=O)(=O)c2ccc(C(C)C)cc2)cc1 (stereo not shown) [Example 76] .
## Output > 1000 nM
